Biological target: human orexin 1 receptor (Homo sapiens, UniProt O43613)
Test: Human orexin 1 receptor radioligand binding
Conditions: human orexin 1 receptor; averages of 2-20 runs; read-out: hOX1 Ki
Quantity name: Ki (nM)

# count of solved cases: 5
O=C(c1cccc(F)c1-c1ncccn1)N1C[C@@H]2CC[C@H]1[C@H](Oc1ncc(C(F)(F)F)cc1F)C2 ... 11
Cc1noc(-c2cc(F)ccc2C(=O)N2C[C@H]3C[C@@H](Oc4ccc(C(F)(F)F)cn4)[C@@H]2C3)n1 ... 82
Cc1cnc(-c2ncccn2)c(C(=O)N2C[C@H]3C[C@@H](Nc4ccc(C(F)(F)F)cn4)[C@@H]2C3)c1 ... 47
O=C(c1cccc(F)c1-n1nccn1)N1C[C@H]2C[C@@H](Nc3ncc(Cl)cn3)[C@@H]1C2 ... 12
O=C(c1ccccc1-n1nccn1)N1C[C@H]2C[C@@H](Nc3ccc(C(F)(F)F)nn3)[C@@H]1C2 ... 113

[a] O=C(c1cc(F)ccc1-n1nccn1)N1CC2CC(Nc3cnc(C(F)(F)F)cn3)C1C2 (stereo not drawn)
[b] O=C(c1c(F)cccc1-c1ncccn1)N1C[C@H]2C[C@@H](Oc3cnc(C(F)(F)F)cn3)[C@@H]1C2
[c] O=C(c1ccccc1-c1ncccn1)N1C[C@H]2C[C@@H](Nc3ccc(C(F)(F)F)cn3)[C@@H]1C2
Q: Give the ascending ranking of the items by reported Ki. Provide the labels, sequenced as the question asks.
A: c, a, b
(c: 5 nM, a: 8 nM, b: 47 nM)

----------
Target: human orexin 2 receptor (Homo sapiens (Human), UniProt O43614)
Sequence (O43614 whole entry): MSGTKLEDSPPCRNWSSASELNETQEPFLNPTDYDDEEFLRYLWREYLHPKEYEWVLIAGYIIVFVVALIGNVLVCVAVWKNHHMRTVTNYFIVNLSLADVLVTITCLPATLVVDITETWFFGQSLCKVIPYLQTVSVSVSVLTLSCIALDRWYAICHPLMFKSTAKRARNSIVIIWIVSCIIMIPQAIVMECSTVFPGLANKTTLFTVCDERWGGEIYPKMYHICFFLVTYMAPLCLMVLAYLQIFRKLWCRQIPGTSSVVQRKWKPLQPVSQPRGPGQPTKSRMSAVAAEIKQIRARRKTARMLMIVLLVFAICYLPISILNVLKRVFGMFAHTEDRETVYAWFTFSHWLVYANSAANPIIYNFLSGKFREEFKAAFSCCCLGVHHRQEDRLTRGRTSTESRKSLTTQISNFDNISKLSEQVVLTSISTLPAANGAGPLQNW
Assay: Human orexin 2 receptor radioligand binding
Conditions: human orexin 2 receptor; averages of 2-20 runs; read-out: hOX2 Ki
pKi: −log10 of the molar value.
Quantity name: pKi

# count of solved cases: 3
Cc1cnc(O[C@@H]2C[C@H]3C[C@@H]2N(C(=O)c2nc(C)ccc2-n2nccn2)C3)nc1 [Example 132] ... 5.17
O=C(c1c(F)cccc1-c1ncccn1)N1C[C@H]2C[C@@H](Nc3cnc(C(F)(F)F)cn3)[C@@H]1C2 [Example 200] ... 6.62
COc1ccc(C(=O)N2C[C@H]3C[C@@H](Nc4cnc(C(F)(F)F)cn4)[C@@H]2C3)c(-n2nccn2)c1 [Example 197] ... 5.01

[P] O=C(c1ccccc1-c1ncccn1)N1C[C@H]2C[C@@H](Nc3ncc(C(F)(F)F)cn3)[C@@H]1C2 [Example 230]
[Q] O=C(c1ccc(F)cc1-c1ncccn1)N1CC2CCC1C(Nc1cnc(C(F)(F)F)cn1)C2 (racemic) [Example 258]
Q: Lab note: record which item had the higher pKi, P or Q . Which one? Tell me its label.
A: P
(P: 6.33, Q: 5.59)

----------
Molecular target: UniProtKB O43614
Experiment: Human orexin 2 receptor radioligand binding
Details: human orexin 2 receptor; averages of 2-20 runs; read-out: hOX2 Ki
Quantity name: Ki (nM)

# count of solved cases: 3
O=C(c1cccc(F)c1-c1ncccn1)N1C[C@H]2C[C@@H](Nc3ccc(C(F)(F)F)nc3)[C@@H]1C2 ... 939
O=C(c1cc(F)ccc1-c1ncccn1)N1C[C@H]2C[C@@H](Oc3ccc(Br)cn3)[C@@H]1C2 ... 458
CN(c1ccc(C(F)(F)F)cn1)[C@@H]1C[C@H]2C[C@@H]1N(C(=O)c1cc(F)ccc1-n1nccn1)C2 ... 303

[a] O=C(c1ccc(F)cc1-n1nccn1)N1C[C@H]2C[C@@H](Nc3ncc(C(F)(F)F)cn3)[C@@H]1C2
[b] O=C(c1cc(F)ccc1-n1nccn1)N1C[C@H]2C[C@@H](Oc3ccc(Br)cn3)[C@@H]1C2
Q: Lab note: record which item had the higher Ki, a or b . Which one? Tell me its label.
A: a

Values compiled from patent US9611277B2.
